Parameter: peptide exchange yield. Scope: all listed entries.
biological target: HLA-A*24 (peptide-receptive MHC class I monomer of the UV-ligand exchange assay) (human); experiment: UV-ligand exchange with anti-b2m ELISA

Illustrative cases are given below, each with its answer.
binder	peptide exchange yield
RYPDNLKHLYL [Peptide SEQ ID NO: 280 (…)]	> 75%
VHIPEVYLI [Peptide SEQ ID NO: 205 (…)]	50 to 75%
KFVDSTFYL [Peptide SEQ ID NO: 282 (…)]	> 75%
NYINRILKL [Peptide SEQ ID NO: 167 (…)]	> 75%
RFHPTPLLL [Peptide SEQ ID NO: 193 (…)]	> 75%

For record FYSRLLQKF [Peptide SEQ ID NO: 203 (…)] the listed peptide exchange yield is 50 to 75%

For record IFPQFLYQF [Peptide SEQ ID NO: 186 (…)] the listed peptide exchange yield is > 75%

For record RYLNKAFHI [Peptide SEQ ID NO: 284 (…)] the listed peptide exchange yield is 50 to 75%

For record YYVYIMNHL [Peptide SEQ ID NO: 225 (…)] the listed peptide exchange yield is 50 to 75%

For record RYPDNLKHL [Peptide SEQ ID NO: 286 (…)] the listed peptide exchange yield is 20 to 49%

For record YFDKVVTL [Peptide SEQ ID NO: 215 (YFDKVVTL)] the listed peptide exchange yield is 20 to 49%

For record EYNQWFTKL [Peptide SEQ ID NO: 176 (…)] the listed peptide exchange yield is 50 to 75%

For record TYIESASEL [Peptide SEQ ID NO: 279 (…)] the listed peptide exchange yield is 50 to 75%

For record RYFKGLVF [Peptide SEQ ID NO: 188 (RYFKGLVF)] the listed peptide exchange yield is 50 to 75%

For record LYHDIFSRL [Peptide SEQ ID NO: 271 (…)] the listed peptide exchange yield is > 75%

For record IYKVGAPTI [Peptide SEQ ID NO: 185 (…)] the listed peptide exchange yield is 50 to 75%

For record YYKSTSSAF [Peptide SEQ ID NO: 218 (…)] the listed peptide exchange yield is 50 to 75%

For record QYLENLEKL [Peptide SEQ ID NO: 224 (…)] the listed peptide exchange yield is 50 to 75%

For record IYTMIYRNL [Peptide SEQ ID NO: 210 (…)] the listed peptide exchange yield is > 75%

For record VYGFQWRHF [Peptide SEQ ID NO: 276 (…)] the listed peptide exchange yield is > 75%

For record TYSVSFPMF [Peptide SEQ ID NO: 195 (…)] the listed peptide exchange yield is > 75%
